Assay: Substrate specificity of WNanoKAZ mutants, crude enzyme solution (Example 11)
Assay type: biochemical
Conditions: Int.
VALUE_KIND: Relative luminescence activity, h-CTZ, Int.

Please review the following examples before continuing.
1. WNanoKAZ-V90I: single amino acid-substituted WNanoKAZ mutant, valine 90 back to isoleucine; SEQ ID NO: 8 (protein) FTLADFVGDWQQTAGYNQDQVLEQGGLSSLFQALGVSVTPIQKVVLSGENGLKADIHVIIPYEGLSGFQMGLIEMIFKVVYPVDDHHFKIILHYGTLVIDGVTPNMIDYFGRPYEGIAVFDGKKITVTGTLWNGNKIIDERLINPDGSLLFRVTINGVTGWRLCERILA: 22
2. WNanoKAZ-I138Y: single amino acid-substituted WNanoKAZ mutant I138Y; SEQ ID NO: 14 (protein) FTLADFVGDWQQTAGYNQDQVLEQGGLSSLFQALGVSVTPIQKVVLSGENGLKADIHVIIPYEGLSGFQMGLIEMIFKVVYPVDDHHFKVILHYGTLVIDGVTPNMIDYFGRPYEGIAVFDGKKITVTGTLWNGNKIYDERLINPDGSLLFRVTINGVTGWRLCERILA: 22

Prompt line: For WNanoKAZ-K124Q: single amino acid-substituted WNanoKAZ mutant K124Q; SEQ ID NO: 12 (protein) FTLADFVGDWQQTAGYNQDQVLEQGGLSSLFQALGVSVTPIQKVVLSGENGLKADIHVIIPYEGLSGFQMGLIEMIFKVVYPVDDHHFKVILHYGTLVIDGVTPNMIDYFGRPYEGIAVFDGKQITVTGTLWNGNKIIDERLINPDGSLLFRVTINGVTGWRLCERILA , write its Relative luminescence activity, h-CTZ, Int..
Response line: 41
